target: UniProt:P10635; assay: Inhibition of CYP2D6 by human liver microsome assay; assay type: ADME, microsomes
Sequence (P10635 whole entry): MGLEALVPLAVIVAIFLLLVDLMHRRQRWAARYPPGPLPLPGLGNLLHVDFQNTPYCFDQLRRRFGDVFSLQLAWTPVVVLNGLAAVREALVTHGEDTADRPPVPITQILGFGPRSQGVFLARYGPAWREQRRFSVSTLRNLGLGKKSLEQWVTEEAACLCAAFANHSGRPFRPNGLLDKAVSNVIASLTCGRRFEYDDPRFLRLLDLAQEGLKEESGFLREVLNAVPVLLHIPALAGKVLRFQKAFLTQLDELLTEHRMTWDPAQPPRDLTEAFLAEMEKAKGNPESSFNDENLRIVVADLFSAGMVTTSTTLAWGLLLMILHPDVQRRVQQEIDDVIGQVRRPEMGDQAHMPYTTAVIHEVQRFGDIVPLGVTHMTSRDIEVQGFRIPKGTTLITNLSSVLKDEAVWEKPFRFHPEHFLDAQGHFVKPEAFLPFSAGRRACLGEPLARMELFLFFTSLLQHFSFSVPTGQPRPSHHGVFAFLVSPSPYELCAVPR
pIC50: −log10 of the molar value.
Criterion: pIC50 meeting or surpassing 5. Met: rule met. Not met: rule not met.

Query block: Hi, just wondering whether `c1ncc(-c2ccc(OCCCN3CCC(Cc4cnc[nH]4)CC3)cc2)cn1` shows pIC50 of 5 or higher.
Result block: rule met

Query block: Record `O=C(Nc1ncccn1)N1CCC(Cc2c[nH]cn2)CC1` ; criterion: pIC50 no lower than 5. Met?
Result block: rule met

Query block: Confirm if pIC50 reported for the compound `FC1(F)CCN(Cc2ccc(OCCCN3CCC(Cc4cnc[nH]4)CC3)cc2)CC1` is 5 or above.
Result block: rule met

Query block: Determine whether this compound has pIC50 no lower than 5: `CCN(CC)Cc1ccc(OCCCN2CCC(Cc3c[nH]cn3)CC2)cc1`
Result block: rule met

Query block: Say whether `c1ncc(CC2CCN(CCOc3ccc(CN4CCCCC4)cc3)CC2)[nH]1` shows pIC50 of 5 or more.
Result block: rule met

Query block: Hello, I need to know if `CN(C)CCCOc1ccc(CN2CCCCC2)cc1` has measured pIC50 not below 5. Thanks!
Result block: rule not met

Query block: Reported pIC50 reaches at least 5 for `O=C(CCOc1ccc(C(=O)N2CCNCC2)cc1)N1CCC(Cc2c[nH]cn2)CC1` ?
Result block: rule not met

Query block: Quick check, pIC50 >= 5? `c1cc(OCCCN2CCC(Cc3cnc[nH]3)CC2)cc(OC2CCCCC2)c1`
Result block: rule met

Query block: Hello, I need to know if `c1nc(CC2CCN(CCCOc3ccc(CN4CCCCC4)cc3)CC2)c[nH]1` has measured pIC50 not below 5. Thanks!
Result block: rule not met
